Tested on: Oryza sativa, (L.) Tebonnet
Assay: Rice tolerance to post-transplant applications under flooded paddy conditions (Example 187), ORYSAT (Rice, Tebonnet)
Details: Rate 0.0313 kg/ha, rated three to four weeks after treatment
ORYSAT herbicidal effect rating less than 3 is t; ORYSAT herbicidal effect rating greater than or equal to 3 is f.

Query: Field: below-cutoff. Rule: recorded ORYSAT herbicidal effect rating strictly less than 3. Subject: "Cn1c(C(F)(F)F)cc(=O)n(-c2ccc3snc(COCCCCl)c3c2)c1=O"
Result: f

Query: State whether 3 exceeds ORYSAT herbicidal effect rating recorded for "Cn1c(C(F)(F)F)cc(=O)n(-c2ccc3snc(COC(CF)CF)c3c2)c1=O" .
Result: f

Query: Does the reported ORYSAT herbicidal effect rating of the following compound sit strictly below 3? "C#CCn1c(C(F)(F)F)cc(=O)n(-c2ccc3snc(C)c3c2)c1=O"
Result: t

Query: Does "Cc1nsc2ccc(-n3c(=O)cc(C(F)(F)F)n(Cc4ccccc4)c3=O)cc12" have ORYSAT herbicidal effect rating strictly under 3?
Result: t

Query: Field: below-cutoff. Rule: recorded ORYSAT herbicidal effect rating strictly less than 3. Subject: "C=CCCOCc1nsc2ccc(-n3c(=O)cc(C(F)(F)F)n(C)c3=O)cc12"
Result: f

Query: Criterion: ORYSAT herbicidal effect rating strictly below 3. Is it met by "CCOc1nc(C(F)(F)F)cc(=O)n1-c1ccc2snc(-c3cc(C)ccc3OCC(=O)OC)c2c1" ?
Result: t

Query: Does this compound meet the criterion ORYSAT herbicidal effect rating < 3? C=C(C)C1CC=C(COCc2nsc3ccc(-n4c(=O)ccn(C)c4=O)cc23)CC1 (stereo not shown)
Result: t

Query: Does "C=CCOc1nc(C(F)(F)F)cc(=O)n1-c1ccc2snc(-c3cc(C)ccc3OC)c2c1" have ORYSAT herbicidal effect rating strictly under 3?
Result: t

----------
Test system: Monochoria vaginalis, Presl.
Experiment: Preemergence weed control under flooded paddy conditions, MOOVA (Monochoria)
Assay type: in vivo
Details: 0.1250 kg/ha; preemergence, flooded paddy; rated three to four weeks after treatment
Answer each item with its documented MOOVA herbicidal rating.
// return just the number, without any unit appended

// sample "Cn1c(C(F)(F)F)cc(=O)n(-c2ccc3snc(COCOCc4ccccc4)c3c2)c1=O" , its MOOVA herbicidal rating was 9.0

Given item COC(=O)C(C)Oc1ccc(I)cc1-c1nsc2ccc(-n3c(=O)cc(C(F)(F)F)n(C)c3=O)cc12 (stereo not shown) , the value recorded as its MOOVA herbicidal rating is 4.0

The recorded MOOVA herbicidal rating for "Cn1c(C(F)(F)F)cc(=O)n(-c2ccc3snc(C(=O)NS(=O)(=O)CCc4ccccc4)c3c2)c1=O" is 7.0

Given item "Cc1ccc(CS(=O)(=O)NC(=O)c2nsc3ccc(-n4c(=O)cc(C(F)(F)F)n(C)c4=O)cc23)cc1" , the value recorded as its MOOVA herbicidal rating is 9.0

For "Cn1c(C(F)(F)F)cc(=O)n(-c2ccc3snc(COC(=O)C4CC4)c3c2)c1=O" the compound record lists MOOVA herbicidal rating as 6.0

Value of measured MOOVA herbicidal rating for the entry "COC(=O)C(C)(C)c1nsc2ccc(-n3c(=O)cc(C(F)(F)F)n(C)c3=O)cc12" : 9.0

"CC(C)N(C(C)C)S(=O)(=O)NC(=O)COc1ccccc1-c1nsc2ccc(-n3c(=O)cc(C(F)(F)F)n(C)c3=O)cc12" yielded MOOVA herbicidal rating of 9.0

----------
Test system: Cyperus iria
Test: Preemergence weed control under flooded paddy conditions, CYPIR (Rice Flatsedge)
Assay type: in vivo
Conditions: 0.2500 kg/ha; preemergence, flooded paddy; rated three to four weeks after treatment
Please provide measured CYPIR herbicidal rating for the entries that follow.
Answer field: number only, no words.

In plain terms, Cn1c(C(F)(F)F)cc(=O)n(-c2ccc3snc(C(=O)NS(=O)(=O)Cc4cccc(Cl)c4)c3c2)c1=O [Example 486] has a documented CYPIR herbicidal rating of 6.0

Lab note: Cn1c(C(F)(F)F)cc(=O)n(-c2ccc3snc(COC(=O)c4cccs4)c3c2)c1=O [Example 477] gave CYPIR herbicidal rating of 6.0

Recorded CYPIR herbicidal rating (compound CC(C)N(C(C)C)S(=O)(=O)NC(=O)C(C)(C)c1nsc2ccc(-n3c(=O)cc(C(F)(F)F)n(C)c3=O)cc12 [Example 511] ): 7.0

Measured CYPIR herbicidal rating of Cc1ccc(CS(=O)(=O)NC(=O)c2nsc3ccc(-n4c(=O)cc(C(F)(F)F)n(C)c4=O)cc23)cc1 [Example 464] : 5.0

Given item COC(=O)COc1cc(C)c(I)cc1-c1nsc2ccc(-n3c(=O)cc(C(F)(F)F)n(C)c3=O)cc12 [Example 469] , the value recorded as its CYPIR herbicidal rating is 7.0

Measured CYPIR herbicidal rating of COc1cc(Cl)c(C)cc1-c1nsc2ccc(-n3c(=O)cc(C(F)(F)F)n(C)c3=O)cc12 [Example 506] : 9.0

Cn1c(C(F)(F)F)cc(=O)n(-c2ccc3snc(COC(=O)c4ccno4)c3c2)c1=O [Example 475] has a reported CYPIR herbicidal rating of 9.0

----------
Tested on: Cyperus iria
Experiment: Preemergence weed control under flooded paddy conditions, CYPIR (Rice Flatsedge); as to herbicidal effect rating, CYPIR: meaning of each grade not given here
Assay type: in vivo
Conditions: 0.2500 kg/ha; preemergence, flooded paddy; rated three to four weeks after treatment
reported metric: herbicidal effect rating, CYPIR
Lab note: jot the number down without any unit.

Query "COc1noc2ccc(-n3c(=O)cc(C(F)(F)F)n(C)c3=O)cc12" yields herbicidal effect rating, CYPIR of 0.0

"COC(=O)COc1cc(C)c(C)cc1-c1nsc2ccc(-n3c(=O)cc(C(F)(F)F)n(C)c3=O)cc12" yielded herbicidal effect rating, CYPIR of 9.0

Reported herbicidal effect rating, CYPIR of "COC(=O)COc1noc2ccc(-n3c(=O)cc(C(F)(F)F)n(C)c3=O)cc12" : 9.0

Lookup result for "COc1ccccc1Oc1noc2ccc(-n3c(=O)cc(C(F)(F)F)n(C)c3=O)cc12" ; measured herbicidal effect rating, CYPIR: 0.0

So, COC(=O)C(C)Oc1cc(C)c(C)cc1-c1nsc2ccc(-n3c(=O)cc(C(F)(F)F)n(C)c3=O)cc12 (stereo not drawn) ? Its herbicidal effect rating, CYPIR was 9.0

Looking up COC(=O)C(C)Oc1ccccc1Oc1noc2ccc(-n3c(=O)cc(C(F)(F)F)n(C)c3=O)cc12 (stereo not drawn) , I found its herbicidal effect rating, CYPIR recorded as 1.0

----------
Tested on: Oryza sativa, (L.) Tebonnet
Test: Rice tolerance to post-transplant applications under flooded paddy conditions (Example 187), ORYSAT (Rice, Tebonnet)
Conditions: Rate 0.1250 kg/ha, rated three to four weeks after treatment
reported metric: ORYSAT herbicidal effect rating
No unit in the answer, please; the number alone is enough.

The recorded ORYSAT herbicidal effect rating for COC(=O)C(C)Oc1ccc(-c2nsc3ccc(-n4c(=O)cc(C(F)(F)F)n(C)c4=O)cc23)cc1 (centres unmarked) is 3.0

The compound "Cn1c(C(F)(F)F)cc(=O)n(-c2ccc3snc(-c4ccc(OCC(=O)O)cc4)c3c2)c1=O" showed ORYSAT herbicidal effect rating equal to 4.0

The compound listed as "C=CCCOCc1nsc2ccc(-n3c(=O)cc(C(F)(F)F)n(C)c3=O)cc12" shows ORYSAT herbicidal effect rating equal to 8.0

The recorded ORYSAT herbicidal effect rating for "Cn1c(C(F)(F)F)cc(=O)n(-c2ccc3snc(CS(=O)(=O)CC(=O)O)c3c2)c1=O" is 4.0

// ORYSAT herbicidal effect rating value for "COC(=O)COc1ccc(C)cc1-c1noc2ccc(-n3c(=O)cc(C(F)(F)F)n(C)c3=O)c(Cl)c12" : 0.0

GET /value?item= "Cc1nsc2ccc(-n3c(=O)cc(C(F)(F)F)n(CC#N)c3=O)cc12" &field=ORYSAT herbicidal effect rating returns 6.0

For record "C#CCOC(=O)COc1c(-c2nsc3ccc(-n4c(=O)cc(C(F)(F)F)n(C)c4=O)cc23)ccc(C)c1C" the listed ORYSAT herbicidal effect rating is 7.0

Measured ORYSAT herbicidal effect rating, "C=Cc1nsc2ccc(-n3c(=O)cc(C(F)(F)F)n(C)c3=O)cc12" : 6.0

"Cn1c(C(F)(F)F)cc(=O)n(-c2ccc3snc(-c4ccc(OCC(=O)OC(C)(C)C)cc4)c3c2)c1=O" yielded ORYSAT herbicidal effect rating of 3.0

Entry "Cc1nsc2ccc(-n3c(=O)cc(C(F)(F)F)n(Cc4ccccc4)c3=O)cc12" ; ORYSAT herbicidal effect rating = 3.0

Looking up "Cn1c(C(F)(F)F)cc(=O)n(-c2ccc3snc(COCCCCl)c3c2)c1=O" , I see its ORYSAT herbicidal effect rating listed as 8.0

----------
Record form. Attribute: herbicidal effect rating, CYPSE. Fill in for each entry.
Test system: Cyperus serotinus, Rottb.
Assay: Postemergence weed control under flooded paddy conditions, CYPSE (Flatsedge)
Format: in vivo
Conditions: Rate 0.0620 kg/ha, rated three to four weeks after treatment
Could you keep your reply to the number by itself?

Looking up COc1cc2c(cc1-c1nsc3ccc(-n4c(=O)cc(C(F)(F)F)n(C)c4=O)cc13)CCC2 [Example 380] , I see its herbicidal effect rating, CYPSE listed as 2.0

Measured herbicidal effect rating, CYPSE, COc1ccc(I)cc1-c1nsc2ccc(-n3c(=O)cc(C(F)(F)F)n(C)c3=O)cc12 [Example 448] : 0.0

In plain terms, C#CCOC(=O)C(C)(C)Oc1ccc(C)cc1-c1nsc2ccc(-n3c(=O)cc(C(F)(F)F)n(C)c3=O)cc12 [Example 528] has a documented herbicidal effect rating, CYPSE of 0.0

// field: herbicidal effect rating, CYPSE; key: COC(=O)COc1ccc(C)cc1-c1noc2ccc(-n3c(=O)cc(C(F)(F)F)n(C)c3=O)c(Cl)c12 [Example 261] ; value = 0.0

Hey, just so you know, these numbers are from patent EP0908457B1.
